# measured_on: human TLR9 (Homo sapiens (Human), UniProt Q9NR96)
# Sequence (Q9NR96 26-1032): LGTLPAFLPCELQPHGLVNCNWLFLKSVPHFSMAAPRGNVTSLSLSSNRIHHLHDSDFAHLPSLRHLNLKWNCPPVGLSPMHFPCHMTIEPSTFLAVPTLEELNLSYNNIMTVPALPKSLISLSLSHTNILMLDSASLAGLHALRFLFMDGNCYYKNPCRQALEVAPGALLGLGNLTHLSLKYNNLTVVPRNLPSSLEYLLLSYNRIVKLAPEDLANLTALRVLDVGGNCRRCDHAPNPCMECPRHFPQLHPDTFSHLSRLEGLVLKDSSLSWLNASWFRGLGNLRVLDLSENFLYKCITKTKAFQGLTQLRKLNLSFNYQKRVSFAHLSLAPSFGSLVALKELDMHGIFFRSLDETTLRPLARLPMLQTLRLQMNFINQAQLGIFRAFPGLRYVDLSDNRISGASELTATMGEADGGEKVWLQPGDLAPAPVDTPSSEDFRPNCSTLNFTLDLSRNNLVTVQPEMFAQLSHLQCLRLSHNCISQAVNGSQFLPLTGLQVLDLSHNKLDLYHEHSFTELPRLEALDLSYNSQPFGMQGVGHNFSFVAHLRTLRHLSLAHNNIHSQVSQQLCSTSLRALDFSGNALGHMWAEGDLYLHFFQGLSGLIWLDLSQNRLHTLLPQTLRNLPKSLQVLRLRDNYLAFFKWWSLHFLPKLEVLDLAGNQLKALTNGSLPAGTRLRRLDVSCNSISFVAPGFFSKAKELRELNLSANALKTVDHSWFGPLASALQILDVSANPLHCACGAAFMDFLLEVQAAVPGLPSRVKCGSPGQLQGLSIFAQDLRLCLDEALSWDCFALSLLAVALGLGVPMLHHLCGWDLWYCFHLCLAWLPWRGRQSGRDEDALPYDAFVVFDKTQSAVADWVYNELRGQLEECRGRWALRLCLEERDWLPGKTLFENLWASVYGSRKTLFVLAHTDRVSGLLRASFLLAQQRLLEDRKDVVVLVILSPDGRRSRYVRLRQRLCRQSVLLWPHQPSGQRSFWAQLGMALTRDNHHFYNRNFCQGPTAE
# measurement_notes: TLR9 inhibition reporter assay (HEK-Blue, SEAP)
# experimental_setup: HEK-Blue cells overexpressing human TLR9, ODN2006 5 nM stimulation
pIC50: −log10 of the molar value.
assay_readout: pIC50

(P) CCc1c(-c2ccnc(C)c2)[nH]c2ccc(-c3noc(CCC4CCN(C(C)C)CC4)n3)cc12
(Q) Cc1cc(-c2[nH]c3ccc(-c4ccc(NC(=O)CN(C)C)nc4)cc3c2C(C)C)ccn1
Hi there! Just curious which has the higher pIC50 between P and Q . In your reply, give the label of the chosen option. Q
